Quick reference for melting point among some molecules

O=C(O)c1cc(-n2c3c(c(-c4ccccc4)c2-c2ccccc2)CCCC3)ccc1O
246 to 247 °C
O=C1Nc2ccccc2C2=NC(CN3CCN(c4ccccc4)CC3)CN12 (configuration not stated)
257 to 258 °C
CC(C)CN(CC(O)C(Cc1ccccc1)NC(=O)C(CC(N)=O)NC(=O)NCc1ccccc1)C(=O)NC(C)(C)C (configuration not stated)
164 to 166 °C
Cc1nnc(-c2ccc3occ(-c4ccc5sccc5c4)c3c2)o1
159 to 160 °C
O=c1[nH]c2c(n(O)c1=O)C1=C(CCC(n3ccc(CN4CCN(Cc5ccccc5)CC4)c3)=C1)CC2
> 200 °C
COc1cc2ccc(-c3cc4c(cc3[N+](=O)[O-])OCO4)c([N+](=O)[O-])c2cc1OC
187 to 189 °C
CNc1cc(N2CCN(C(=O)N3CCN(S(=O)(=O)c4ccc(Br)cc4)CC3)CC2)ncn1
219 to 221 °C
Cc1ccc(-c2cc(-c3ccc(O)c(F)c3)nc3ccc(O)cc23)cc1
184 to 188 °C
Cc1cc2c([C@@H]3C[C@H]3CNC(=O)c3ccccc3)cccn2n1 (relative stereo)
112 to 113 °C
CCOC(=O)c1ccc(N2CCOCC2)cc1
82 to 83 °C

Asked: Fill blank: measured melting point of the molecule CN(C)C(=O)NC1CCC(=O)c2ccccc21 (configuration not stated) is ____.
Given back: 157 to 162 °C

Asked: Recorded melting point for Cc1ncn(-c2cc(F)ccc2C#N)n1 , please?
Given back: 117 to 118 °C

Asked: What value of melting point has been recorded for this entry: Cc1cc(C)c(=O)n(C(C(=O)O)c2ccc3c(c2)OCO3)n1 (configuration not stated)
Given back: 165 °C

Asked: Entry CCOC(=O)C(C)Oc1cc(-n2c(=O)cc(C(F)(F)F)n(C)c2=O)c(F)cc1Cl (configuration not stated) has what melting point?
Given back: 72 to 74 °C

Asked: Query: melting point; subject: NS(=O)(=O)c1ccc(-c2c(CC(O)c3ccc(Cl)cc3)noc2-c2ccccc2)cc1 (configuration not stated)
Given back: 165 to 167 °C

Asked: Endpoint output: melting point of O=C(Oc1ccccc1)c1ccc(-c2ccccc2)cc1 . Value?
Given back: 146 to 149 °C

Asked: What does the record list as melting point for CCn1c(=O)c(C(=O)NN)c(O)c2ccc(C)nc21 ?
Given back: 211 to 213 °C
